These data points were gathered from patent US6376670B1.

# Tested on: S. aureus (ATCC 25923)
# EXPERIMENTAL_DETAILS: MIC against S. aureus strain
# Type: cell-based
# SETUP_CONDITIONS: Staphylococcus aureus, ATCC25923
READOUT: MIC

SMILES_CODE: NCCNC(=O)c1cc(-c2c[nH]c3ccc(Br)cc23)nc2cc(Cl)c(C#CCN3CCCCC3)cc12
READOUT: MIC
VALUE: < 7 µg/mL
//
SMILES_CODE: COc1ccc(NC(=O)c2cc(-c3c[nH]c4ccc(Br)cc34)nc3ccc(C#CCN4CCCCC4)cc23)cc1
READOUT: MIC
VALUE: < 7 µg/mL
//
SMILES_CODE: COc1ccc2nc(-c3c[nH]c4ccc(Cl)cc34)ccc2c1
READOUT: MIC
VALUE: < 7 µg/mL
